These entries and their values trace back to ChEMBL document CHEMBL1961873.

# inhibition annotations
molecular target: Tyrosine-protein kinase receptor TYRO3 (Homo sapiens); conditions: at 0.1 µM;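 note: reported percentages are averaged inhibition values of TYRO3 kinase activity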

Consider the worked cases shown below.
| ENTRY_SMILES | REPORTED_MEASUREMENT |
| --- | --- |
| Cc1nnc(-c2ccc(C)c(-c3ccc(C(=O)NCc4ccc(Cl)cc4)cc3)c2)o1 | 2.85% |
| CCc1ccc(Oc2nccc(-c3c(-c4ccc(F)cc4)ncn3C3CCNCC3)n2)cc1 | 1.15% |
| CN(C)CCOc1ccc(-c2cc(-c3ccc4c(c3)CCC4=NO)c(-c3ccncc3)o2)cc1 | -0.87% |

Q) Which inhibition is listed for `COc1cc2ncn(-c3cc(OCCc4ccccc4)c(C(N)=O)s3)c2cc1OC` ?
A) 0.78%

Q) Next: `CNC(=O)c1cncc(/C=C/c2c(C)cccc2C)c1`
A) 0.85%

Q) Next: `O=C(Nc1n[nH]c2nc(-c3ccco3)ccc12)C1CC1`
A) 2.23%

Q) Next: `O=C1Nc2ccc(I)cc2C1=Cc1cc(Br)c(O)c(Br)c1`
A) 2.41%

Q) Next: `C/C(Nc1ccc(S(N)(=O)=O)cc1)=C1/C(=O)Nc2ccccc21`
A) 1.52%

----------
biological target: Epidermal growth factor receptor (Homo sapiens) (UniProt P00533); conditions: at 0.1 µM
Sequence (P00533 whole entry): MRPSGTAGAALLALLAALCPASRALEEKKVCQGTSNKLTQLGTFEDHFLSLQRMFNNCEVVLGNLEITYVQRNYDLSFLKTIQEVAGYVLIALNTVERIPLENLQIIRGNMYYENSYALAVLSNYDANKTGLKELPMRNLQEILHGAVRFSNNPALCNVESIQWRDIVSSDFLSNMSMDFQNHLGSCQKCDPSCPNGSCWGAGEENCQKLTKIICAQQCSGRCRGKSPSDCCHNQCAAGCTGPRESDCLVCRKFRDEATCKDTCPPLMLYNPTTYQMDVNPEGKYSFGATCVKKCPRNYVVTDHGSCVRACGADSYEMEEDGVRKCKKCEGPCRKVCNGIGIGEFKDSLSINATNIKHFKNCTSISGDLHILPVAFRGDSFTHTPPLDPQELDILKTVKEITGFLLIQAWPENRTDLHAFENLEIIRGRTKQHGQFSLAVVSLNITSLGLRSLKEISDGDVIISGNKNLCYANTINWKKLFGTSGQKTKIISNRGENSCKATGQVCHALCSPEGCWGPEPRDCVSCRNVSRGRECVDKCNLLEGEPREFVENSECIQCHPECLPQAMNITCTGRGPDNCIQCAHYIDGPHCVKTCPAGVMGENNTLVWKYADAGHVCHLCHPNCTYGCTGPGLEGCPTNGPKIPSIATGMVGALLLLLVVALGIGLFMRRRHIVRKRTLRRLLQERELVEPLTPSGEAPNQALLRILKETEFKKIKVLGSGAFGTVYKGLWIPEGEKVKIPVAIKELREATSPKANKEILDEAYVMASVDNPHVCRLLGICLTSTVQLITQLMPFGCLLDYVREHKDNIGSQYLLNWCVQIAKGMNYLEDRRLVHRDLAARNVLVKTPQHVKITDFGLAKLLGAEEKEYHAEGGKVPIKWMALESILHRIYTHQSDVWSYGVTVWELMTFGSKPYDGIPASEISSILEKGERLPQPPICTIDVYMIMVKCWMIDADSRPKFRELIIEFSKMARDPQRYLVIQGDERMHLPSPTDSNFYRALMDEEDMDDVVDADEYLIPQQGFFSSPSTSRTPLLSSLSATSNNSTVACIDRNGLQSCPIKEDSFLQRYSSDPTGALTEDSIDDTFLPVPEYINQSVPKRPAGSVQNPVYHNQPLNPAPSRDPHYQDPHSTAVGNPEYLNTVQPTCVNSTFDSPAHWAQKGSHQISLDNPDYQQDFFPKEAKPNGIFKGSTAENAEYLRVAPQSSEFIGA
Description: GSK_PKIS: EGFR mean inhibition at 0.1 uM [Nanosyn]
MEASURED_ATTRIBUTE: inhibition (%)
Report the figure in % without appending any unit label.

Consider the worked cases shown below.
| ENTRY_SMILES | inhibition (%) |
| --- | --- |
| COc1cc2ncn(-c3cc(OCc4cccs4)c(C(N)=O)s3)c2cc1OC | -1.17 |
| COc1cccc(/C=N/Nc2ncnc3c2cnn3-c2cccc(OC)c2)c1 | 1.31 |

Now look at this one.
Q) Which inhibition is listed for `O=C(Nc1ccc(Oc2ccc3[nH]c(NC(=O)c4ccccc4)nc3c2)cc1)Nc1cc(C(F)(F)F)ccc1F` ?
A) -0.35

----------
molecular target: Tyrosine-protein kinase Lyn (Homo sapiens) (UniProt P07948); settings: at 0.1 µM;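 note: mean inhibition of the LYN A splice variant of the kinase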
Sequence (P07948 2-512 limits assumed): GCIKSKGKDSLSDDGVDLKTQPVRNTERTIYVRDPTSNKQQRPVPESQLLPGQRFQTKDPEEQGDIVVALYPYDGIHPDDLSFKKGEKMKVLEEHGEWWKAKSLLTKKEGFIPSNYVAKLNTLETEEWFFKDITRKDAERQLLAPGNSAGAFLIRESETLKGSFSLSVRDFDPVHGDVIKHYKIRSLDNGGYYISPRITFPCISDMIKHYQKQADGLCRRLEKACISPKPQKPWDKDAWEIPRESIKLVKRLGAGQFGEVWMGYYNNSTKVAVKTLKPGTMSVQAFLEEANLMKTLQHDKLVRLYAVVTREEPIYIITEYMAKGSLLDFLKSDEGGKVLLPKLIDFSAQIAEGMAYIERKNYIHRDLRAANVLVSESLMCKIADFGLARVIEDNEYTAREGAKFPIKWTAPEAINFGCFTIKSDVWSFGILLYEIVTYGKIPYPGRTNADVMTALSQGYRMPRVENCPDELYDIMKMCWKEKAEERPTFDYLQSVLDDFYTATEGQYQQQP
Description: GSK_PKIS: LYN A (splice variant) mean inhibition at 0.1 uM [Nanosyn]
MEASURED_ATTRIBUTE: inhibition (%)
Report the figure in % without appending any unit label.

| MOLECULE | MEASURED_ATTRIBUTE | UNIT_SPEC | REPORTED_MEASUREMENT |
| --- | --- | --- | --- |
| NS(=O)(=O)c1ccc(Nc2cc(-c3ccc(O)c(F)c3)n[nH]2)cc1 | inhibition | % | 2.66 |

Q) What reported inhibition corresponds to `COc1cccc(/C=N/Nc2ncnc3c2cnn3-c2cccc(OC)c2)c1` on Tyrosine-protein kinase Lyn (Homo sapiens) (UniProt P07948)?
A) 5.08

Q) Next: `O=C(Nc1n[nH]c2nc(-c3ccc(O)cc3)c(Br)cc12)C1CC1`
A) 9.57

Q) Next: `NCc1ccc(-n2c(-c3nonc3N)nc3cnccc32)cc1`
A) 6.22

Q) Next: `CN1CCN(CCCNc2nc3ccc(Oc4ccc(NC(=O)Nc5cc(C(F)(F)F)ccc5F)cc4)cc3[nH]2)CC1`
A) 1.76

Q) Next: `CCS(=O)(=O)c1ccc(OC)c(Nc2ncc(-c3cccc(-c4ccccc4F)c3)o2)c1`
A) 14.8

----------
target: Ribosomal protein S6 kinase alpha-5 (Homo sapiens); settings: at 1 µM;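 note: mean inhibition of MSK1, from screening of the GSK PKIS inhibitor set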
MEASURED_ATTRIBUTE: inhibition (%)
Report the figure in % without appending any unit label.

Consider the worked cases shown below.
| ENTRY_SMILES | MEASURED_ATTRIBUTE | UNIT_SPEC | REPORTED_MEASUREMENT |
| --- | --- | --- | --- |
| COc1cc2ncn(-c3cc(OCc4cccs4)c(C(N)=O)s3)c2cc1OC | inhibition | % | 5.4 |
| Cc1ccc(NC(=O)c2ccoc2)cc1-c1ccc(C(=O)NCC2CC2)cc1 | inhibition | % | -1.39 |
| COc1ccc2cc(-c3c(-c4ccncc4)nc(-c4ccc(S(C)(=O)=O)cc4C)n3C)ccc2c1 | inhibition | % | 5.44 |
| O=C1NC(=O)C(c2cccc(Cl)c2)=C1Nc1ccc(Cl)c(C(=O)O)c1 | inhibition | % | 2.1 |
| O=C(Nc1ccc(Oc2ccc3[nH]c(NC(=O)c4ccccc4)nc3c2)cc1)Nc1cc(C(F)(F)F)ccc1F | inhibition | % | 5.67 |
| COC(=O)Nc1nc2ccc(Sc3ccc(NC(=O)Nc4cc(C(F)(F)F)ccc4F)cc3)cc2[nH]1 | inhibition | % | 2.08 |
| COc1cc(Nc2ncc3c(C)nc(-c4cccc(Oc5ccccc5)c4)n3n2)cc(OC)c1OC | inhibition | % | 7.74 |
| COc1cccc(/C=N/Nc2ncnc3c2cnn3-c2cccc(OC)c2)c1 | inhibition | % | -0.07 |
| C[C@@H](Oc1cc(-n2cnc3ccc(OCC4CCN(C)CC4)cc32)sc1C(N)=O)c1ccccc1Cl | inhibition | % | 7.75 |
| CS(=O)(=O)CCNCc1cc(-c2cc3c(Nc4ccc(OCc5cccc(F)c5)c(Cl)c4)ncnc3s2)cs1 | inhibition | % | 1.79 |

Q) Which inhibition is listed for `C/C(Nc1ccc(S(N)(=O)=O)cc1)=C1/C(=O)Nc2ccccc21` ?
A) 8.47

Q) Next: `N#Cc1ccc(Oc2nccc(-c3c(-c4ccc(F)cc4)ncn3C3CCNCC3)n2)cc1`
A) -0.96

Q) Next: `NS(=O)(=O)c1ccc(Nc2cc(-c3ccc(O)c(F)c3)n[nH]2)cc1`
A) 8.77

Q) Next: `Fc1ccc(-c2nc3n(c2-c2ccncc2)CCS3)cc1`
A) 3.92

Q) Next: `Fc1ccc(-c2ncn(C3CCNCC3)c2-c2ccnc(Oc3ccc(Oc4ccccc4)cc3)n2)cc1`
A) 11.9

Q) Next: `COc1cc2ncn(-c3cc(OCc4ccccc4C(F)(F)F)c(C(C)=O)s3)c2cc1OC`
A) -0.03

Q) Next: `NC(=O)c1cc(-c2ccc(F)cc2)cc(-c2ccncc2)c1N`
A) 1.39
